procedureText: Evaluation for brain penetration in mice (cassette dosing)
Assay type: in vivo
conditionSummary: male, Jcl; C57BL/6J, mouse; brain/plasma partition coefficient, 3 or 5 hours after oral administration (2 mg/10 mL/kg) in mice
readoutType: Kp at 5 h

Field: example entries. Status: answers known.
## Input Could you please provide reported Kp at 5 h for Cc1c(-c2ccccc2)n[nH]c1[C@H]1CC[C@H](NS(=O)(=O)C(C)(C)C)CC1 ? Thanks!
## Output 1.44

## Input Could you please provide reported Kp at 5 h for CC(C)(C)S(=O)(=O)N[C@H]1CC[C@H](c2cc(-c3ccc(F)cc3)n[nH]2)CC1 ? Thanks!
## Output 2.41

## Input Could you please provide reported Kp at 5 h for CC(C)(C)S(=O)(=O)N[C@H]1CC[C@H](c2cc3cc(-c4ncccn4)ccc3[nH]2)CC1 ? Thanks!
## Output 2.11

## Input Could you please provide reported Kp at 5 h for CC(C)(C)S(=O)(=O)N[C@H]1CC[C@H](c2cc3nc(-c4ccccc4F)ccc3[nH]2)CC1 ? Thanks!
## Output 1.33

I. CC(C)(C)S(=O)(=O)N[C@H]1CC[C@H](c2cc(-c3ccccc3)n[nH]2)CC1
II. CC(C)(C)S(=O)(=O)N[C@H]1CC[C@H](c2nc(-c3ccc(Cl)c(Cl)c3)c[nH]2)CC1
III. CC(C)(C)S(=O)(=O)N[C@H]1CC[C@H](c2[nH]nc(-c3ccccc3)c2F)CC1
IV. CC(C)(C)S(=O)(=O)N[C@H]1CC[C@H](c2cc3nc(-c4ccc(F)cc4)ncc3[nH]2)CC1
## Input rank_up(items): orders items by reported Kp at 5 h in ascending numerical order. I'd appreciate it if you listed the labels in the requested order.
## Output II, IV, I, III
(II: 0.45, IV: 0.89, I: 1.78, III: 3.14)

* * *

procedureText: Pharmacokinetic analysis in rats (cassette dosing, intravenous)
Assay type: in vivo
conditionSummary: male, Crl, CD (SD), rat, plasma, intravenous administration (0.5 mg/mL/kg), read-out: Rat CLtot
readoutType: clearance (mL/min/kg)

Field: example entries. Status: answers known.
## Input Could you please provide reported clearance for CC(C)(C)S(=O)(=O)N[C@H]1CC[C@H](c2nc(-c3cccc(Cl)c3)n[nH]2)CC1 ? Thanks!
## Output 3.82

## Input Could you please provide reported clearance for CC(C)(C)S(=O)(=O)N[C@H]1CC[C@H](c2[nH]nc(-c3ccccc3)c2F)CC1 ? Thanks!
## Output 4.04

## Input Could you please provide reported clearance for CC(C)(C)S(=O)(=O)N[C@H]1CC[C@H](c2cc(-c3ccc(F)cc3)n[nH]2)CC1 ? Thanks!
## Output 2.67

## Input Could you please provide reported clearance for CC(C)(C)S(=O)(=O)N[C@H]1CC[C@H](c2nc(-c3cccc(C#N)c3)c[nH]2)CC1 ? Thanks!
## Output 14.5

A. CC(C)(C)S(=O)(=O)N[C@H]1CC[C@H](c2nc(-c3ccccc3)n[nH]2)CC1
B. CC(C)(C)S(=O)(=O)N[C@H]1CC[C@H](c2cc(-c3ccccc3)n[nH]2)CC1
## Input Please indicate which entry, A or B , has the lower recorded clearance value. The response must carry the label of the picked entry.
## Output A

* * *

measuredOn: mouse NPY Y5 receptor (Mus musculus)
Construct: expressed in transfected cells
Sequence (O70342 whole entry): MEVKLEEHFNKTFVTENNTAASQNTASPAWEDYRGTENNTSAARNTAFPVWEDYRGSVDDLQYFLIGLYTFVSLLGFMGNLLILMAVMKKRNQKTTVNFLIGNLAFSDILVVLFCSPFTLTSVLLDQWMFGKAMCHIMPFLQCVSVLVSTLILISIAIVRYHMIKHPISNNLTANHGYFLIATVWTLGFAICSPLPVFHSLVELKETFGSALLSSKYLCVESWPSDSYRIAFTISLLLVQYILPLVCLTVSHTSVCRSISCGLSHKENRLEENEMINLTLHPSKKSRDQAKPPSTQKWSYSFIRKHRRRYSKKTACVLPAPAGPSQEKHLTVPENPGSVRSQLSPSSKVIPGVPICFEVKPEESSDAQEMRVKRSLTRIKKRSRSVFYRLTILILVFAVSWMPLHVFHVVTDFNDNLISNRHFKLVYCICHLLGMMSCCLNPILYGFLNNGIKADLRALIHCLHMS
procedureText: Affinity for mouse NPY Y5 receptor ([125I] peptide YY binding, CHO cell membranes)
conditionSummary: inhibition of specific [125I] peptide YY binding, membranes of CHO cells expressing mouse NPY Y5 receptor
readoutType: IC50 (nM)

## Input Could you please provide reported IC50 for CC(C)(C)S(=O)(=O)N[C@H]1CC[C@H](c2cc3c(-c4ccccn4)cccc3[nH]2)CC1 ? Thanks!
## Output 1.1

I. CC(C)(C)S(=O)(=O)N[C@H]1CC[C@H](c2cc(-c3ccccc3)n[nH]2)CC1
II. CC(C)(C)S(=O)(=O)N[C@H]1CC[C@H](c2nc(-c3ccccc3)n[nH]2)CC1
III. COc1cccc(-c2nc([C@H]3CC[C@H](NS(=O)(=O)C(C)(C)C)CC3)[nH]c2C(F)(F)F)c1
IV. CC(C)(C)S(=O)(=O)N[C@H]1CC[C@H](c2cc3ccc(-c4ccccn4)cc3[nH]2)CC1
V. CC(C)(C)S(=O)(=O)N[C@H]1CC[C@H](c2cc3cc(-c4ccccn4)ccc3[nH]2)CC1
## Input Please rank these compounds by IC50 in descending order. I'd appreciate it if you listed the labels in the requested order.
## Output IV, II, I, III, V

Taken from patent US8299066B2.
